Each item that follows carries a reported CC50 at 120 h.
experiment: in vitro; conditions: human, h9 cells
Reply numerically in mg/L, unit not repeated.

# COMPOUND, CC50 at 120 h (mg/L)
rows = [
    ("Nc1nc(=O)n([C@@H]2CS[C@H](CO)O2)cc1F (relative stereo) [Intermediate 1]", 232),
]

Input Nc1nc(=O)n([C@H]2CS[C@@H](CO)O2)cc1F [(+)-enantiomer] . Output CC50 at 120 h: 334

Input Nc1nc(=O)n([C@@H]2CS[C@H](CO)O2)cc1F [(-)-enantiomer] . Output CC50 at 120 h: 296

###

assay: in vitro; conditions: human, cem cells
VALUE TYPE: CC50 at 120 h
Please don't drop the unit; write it after the number.

Solved entries (count: 2):
# COMPOUND, VALUE TYPE, TEST RESULT
measured = [
    ("Nc1nc(=O)n([C@H]2CS[C@@H](CO)O2)cc1F [(+)-enantiomer]", "CC50 at 120 h", "217 mg/L"),
    ("Nc1nc(=O)n([C@@H]2CS[C@H](CO)O2)cc1F (relative stereo) [Intermediate 1]", "CC50 at 120 h", "173 mg/L"),
]

Then this compound:
Input Nc1nc(=O)n([C@@H]2CS[C@H](CO)O2)cc1F [(-)-enantiomer] . Output CC50 at 120 h: 148 mg/L
